The reported numbers originate from PubChem BioAssay.

System: Wnt5a (protein binding on small-molecule microarray)
PROCEDURE TEXT: Wnt5a binders on small-molecule microarray, primary screen, biophysical, 635/667 nm fluorescence (AID 1142);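 further: fluorescence read at 667 nm with signal to noise per printed feature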
EXPERIMENTAL PARAMETERS: 635 nm fluorescence, higher = more signal
READOUT: composite z-score
Keep it simple and answer with nothing but the number.

Study these solved cases before continuing.
MOLECULE	MEASURED
CCCNC(=O)OC[C@H]1O[C@H](CCON=C[C@@H](NS(=O)(=O)c2ccc(C)cc2)[C@H](C)C=CCC(=O)OC)C=C[C@@H]1Oc1ccc(OC)cc1	-0.208
O=C1C=C[C@@H](O)[C@@H]2[C@@H]3C(=O)N(Cc4ccc5c(c4)OCO5)C(=O)[C@@H]3CC[C@@H]12	0.538
CC(CCN1CCCc2nc(C)c(C)cc21)=NOC[C@@H](O)COCc1ccco1	0.516

Record request: composite z-score value, item COC(=O)CC=C[C@@H](C)[C@@H](C=NOC[C@@H](O)COCc1ccco1)OC
-0.302

* * *

TARGET ENTITY: Calmodulin-1 (Homo sapiens) (UniProt P0DP23)
PROCEDURE TEXT: calcium-bound CALM1 binders on microarrays, profiling panel, artefact control for SMM control-protein annotation, biochemical, small-molecule microarray, Cy5-labelled CALM1, plus calcium (AID 1112);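 further: score merges spot fluorescence with signal to noise from triplicate slides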
EXPERIMENTAL PARAMETERS: Cy5-CALM1 binding fluorescence, higher = more signal
Quick rule: composite z-score of at least -1 means 1 (yes), below that means 0 (no).

Please review the following examples before continuing.
COMPOUND	CLASS
COC(=O)[C@H](C)NC(=O)CC=C[C@@H](C)[C@@H]1C=C[C@H](O)[C@@H](CO)O1	0 (no)
COCC#Cc1ccc([C@@H]2N[C@H](C(=O)O)CC[C@H]2C)cc1	1 (yes)

Could you please find out whether CCOC(=O)[C@H](Cc1ccccc1)NC(=O)CCC1CC(OC(=O)NCCc2ccc(F)cc2)CC2(CCCC(COC(=O)NCCOc3ccccc3)O2)O1 (stereo partly drawn) has composite z-score that meets -1 or exceeds it?
1 (yes)

Could you please find out whether CCOC(=O)NN=C1C[C@@H](O)[C@@H](O)[C@@H]2[C@@H]3C(=O)N(C[C@@H]4CCCO4)C(=O)[C@@H]3CC[C@H]12 has composite z-score that meets -1 or exceeds it?
1 (yes)

Could you please find out whether CCN1C(=O)[C@H]2[C@@H]3C(=CC[C@H]2C1=O)C(=O)[C@H]1O[C@H]1[C@H]3O has composite z-score that meets -1 or exceeds it?
0 (no)

Could you please find out whether CCOC(=O)CCN1C(=O)[C@H]2[C@H]3[C@H](O)[C@H](O)CC(=NOCC(C)C)[C@@H]3CC[C@H]2C1=O has composite z-score that meets -1 or exceeds it?
0 (no)

Could you please find out whether Cc1ccc(S(=O)(=O)N[C@@H]2COC(=O)CC=C[C@@H](C)[C@H](NS(=O)(=O)c3ccc(C)cc3)COC(=O)[C@H](C)NC(=O)CC=C[C@H]2C)cc1 has composite z-score that meets -1 or exceeds it?
1 (yes)

Could you please find out whether CC(=O)OC[C@H]1O[C@H](CC=NO[C@@H](C)c2cc(-c3c(C)cc(C)cc3C)no2)C=C[C@@H]1OC(C)=O has composite z-score that meets -1 or exceeds it?
1 (yes)
